Measured On: DNA polymerase catalytic subunit (Human herpesvirus 1 (strain 17))
Sequence (P04293 whole entry): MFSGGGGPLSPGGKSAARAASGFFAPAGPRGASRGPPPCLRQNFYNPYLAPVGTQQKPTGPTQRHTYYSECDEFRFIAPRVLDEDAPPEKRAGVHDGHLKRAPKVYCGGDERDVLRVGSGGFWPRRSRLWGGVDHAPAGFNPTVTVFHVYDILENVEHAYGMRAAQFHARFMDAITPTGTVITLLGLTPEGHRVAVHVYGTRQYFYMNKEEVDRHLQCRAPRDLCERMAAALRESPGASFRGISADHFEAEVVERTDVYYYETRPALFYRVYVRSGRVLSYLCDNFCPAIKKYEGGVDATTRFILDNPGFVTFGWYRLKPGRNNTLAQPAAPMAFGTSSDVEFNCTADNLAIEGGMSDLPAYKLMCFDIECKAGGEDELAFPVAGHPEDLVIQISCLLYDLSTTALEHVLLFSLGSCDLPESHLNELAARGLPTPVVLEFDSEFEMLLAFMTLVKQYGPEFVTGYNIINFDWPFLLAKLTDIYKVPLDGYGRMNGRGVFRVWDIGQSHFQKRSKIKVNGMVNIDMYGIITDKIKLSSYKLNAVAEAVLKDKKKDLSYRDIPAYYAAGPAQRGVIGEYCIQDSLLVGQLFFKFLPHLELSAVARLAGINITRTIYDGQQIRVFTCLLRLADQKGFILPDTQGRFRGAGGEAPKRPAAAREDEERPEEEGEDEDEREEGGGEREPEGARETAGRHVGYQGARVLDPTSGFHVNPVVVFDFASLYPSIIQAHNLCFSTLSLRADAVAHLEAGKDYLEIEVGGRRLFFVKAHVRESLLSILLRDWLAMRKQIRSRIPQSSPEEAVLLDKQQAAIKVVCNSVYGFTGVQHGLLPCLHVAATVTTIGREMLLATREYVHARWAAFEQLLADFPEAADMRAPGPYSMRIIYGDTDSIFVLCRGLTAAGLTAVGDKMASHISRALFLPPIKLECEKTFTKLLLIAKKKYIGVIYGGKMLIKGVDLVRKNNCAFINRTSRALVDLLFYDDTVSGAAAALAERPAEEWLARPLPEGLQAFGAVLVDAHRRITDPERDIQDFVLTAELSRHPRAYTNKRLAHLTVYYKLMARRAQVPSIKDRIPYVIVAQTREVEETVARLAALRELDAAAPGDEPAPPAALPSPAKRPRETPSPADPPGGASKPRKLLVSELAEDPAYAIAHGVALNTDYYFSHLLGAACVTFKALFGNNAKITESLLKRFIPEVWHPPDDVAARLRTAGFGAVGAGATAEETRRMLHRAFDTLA
Endpoint: IC50

# Structure Notation, Endpoint, Recorded Measurement
measured = [
    ("CCOC(=O)C1(CN2CCn3c(ccc(C(=O)NCc4ccc(Cl)cc4)c3=O)C2=O)CC1", "IC50", "2.9 µM"),
    ("CS(=O)(=O)C1(CCN2CCn3c(c(F)cc(C(=O)NCc4ccc(Cl)cc4)c3=O)C2=O)CC1", "IC50", "137 µM"),
    ("O=C(NCc1ccc(Cl)cc1)c1cc(CC2CC2)c2n(c1=O)CCN(CCN1CCCS1(=O)=O)C2=O", "IC50", "0.324 µM"),
    ("CN(C)S(=O)(=O)C1(CN2CCn3c(ccc(C(=O)NCc4ccc(C#N)cc4)c3=O)C2=O)CC1", "IC50", "0.0198 µM"),
    ("CS(=O)(=O)CCCN1CCn2c(c(C(F)(F)F)cc(C(=O)NCc3ccc(Cl)cc3)c2=O)C1=O", "IC50", "14.8 µM"),
    ("O=C(NCc1ccc(Cl)cc1)c1cc(C2CC2)c2n(c1=O)CCN(CCN1CCCS1(=O)=O)C2=O", "IC50", "0.311 µM"),
]

// moving on: another record for IC50
Observed IC50 on DNA polymerase catalytic subunit (Human herpesvirus 1 (strain 17)), entry `O=C(NCc1ccc(Cl)cc1)c1cc(C(F)F)c2n(c1=O)CCN(CCN1CCCS1(=O)=O)C2=O` , equals 1.11 µM

###

A set of molecules tested on DNA polymerase catalytic subunit (Human herpesvirus 1 (strain 17)), with measured log10 of IC50:
On a log10 scale: recorded IC50, unit nM.

# Structure Notation, Measured On, log10 of IC50
records = [
    ("CCc1cc(C(=O)NCc2ccc(Cl)cc2)c(=O)n2c1C(=O)N(CCN1CCCS1(=O)=O)CC2", "DNA polymerase catalytic subunit (Human herpesvirus 1 (strain 17))", 2.53),
]

Observed log10 of IC50 on DNA polymerase catalytic subunit (Human herpesvirus 1 (strain 17)), entry `O=C(NCc1ccc(Cl)cc1)c1ccc2n(c1=O)CCN(CC1(C(=O)N3CCC3)CC1)C2=O` , equals 3.66

Observed log10 of IC50 on DNA polymerase catalytic subunit (Human herpesvirus 1 (strain 17)), entry `Cc1cc(C(=O)NCc2ccc(Cl)cc2)c(=O)n2c1C(=O)N(CC1(N3CCCS3(=O)=O)CC1)CC2` , equals 1.81

Observed log10 of IC50 on DNA polymerase catalytic subunit (Human herpesvirus 1 (strain 17)), entry `CS(=O)(=O)C1(CN2CCn3c(c(F)cc(C(=O)NCc4ccc(Cl)cc4)c3=O)C2=O)CC1` , equals 1.86

Observed log10 of IC50 on DNA polymerase catalytic subunit (Human herpesvirus 1 (strain 17)), entry `CN(C)C(=O)C1(CN2CCn3c(ccc(C(=O)NCc4ccc(Cl)cc4)c3=O)C2=O)CC1` , equals 3.21

Observed log10 of IC50 on DNA polymerase catalytic subunit (Human herpesvirus 1 (strain 17)), entry `CS(=O)(=O)CC1(CN2CCn3c(c(F)cc(C(=O)NCc4ccc(Cl)cc4)c3=O)C2=O)CC1` , equals 2.47

Observed log10 of IC50 on DNA polymerase catalytic subunit (Human herpesvirus 1 (strain 17)), entry `N#Cc1ccc(CNC(=O)c2ccc3n(c2=O)CCN(CC2(S(=O)(=O)CCCO)CC2)C3=O)cc1F` , equals 2.09

Observed log10 of IC50 on DNA polymerase catalytic subunit (Human herpesvirus 1 (strain 17)), entry `Cc1cc(C(=O)NCc2ccc(Cl)cc2)c(=O)n2c1C(=O)N(CCC1(S(C)(=O)=O)CC1)CC2` , equals 3.97

Observed log10 of IC50 on DNA polymerase catalytic subunit (Human herpesvirus 1 (strain 17)), entry `CN(CCN1CCn2c(c(F)cc(C(=O)NCc3ccc(Cl)cc3)c2=O)C1=O)S(C)(=O)=O` , equals 3.31

###

Measured On: DNA polymerase catalytic subunit (Human herpesvirus 1 (strain 17))
Sequence (P04293 whole entry): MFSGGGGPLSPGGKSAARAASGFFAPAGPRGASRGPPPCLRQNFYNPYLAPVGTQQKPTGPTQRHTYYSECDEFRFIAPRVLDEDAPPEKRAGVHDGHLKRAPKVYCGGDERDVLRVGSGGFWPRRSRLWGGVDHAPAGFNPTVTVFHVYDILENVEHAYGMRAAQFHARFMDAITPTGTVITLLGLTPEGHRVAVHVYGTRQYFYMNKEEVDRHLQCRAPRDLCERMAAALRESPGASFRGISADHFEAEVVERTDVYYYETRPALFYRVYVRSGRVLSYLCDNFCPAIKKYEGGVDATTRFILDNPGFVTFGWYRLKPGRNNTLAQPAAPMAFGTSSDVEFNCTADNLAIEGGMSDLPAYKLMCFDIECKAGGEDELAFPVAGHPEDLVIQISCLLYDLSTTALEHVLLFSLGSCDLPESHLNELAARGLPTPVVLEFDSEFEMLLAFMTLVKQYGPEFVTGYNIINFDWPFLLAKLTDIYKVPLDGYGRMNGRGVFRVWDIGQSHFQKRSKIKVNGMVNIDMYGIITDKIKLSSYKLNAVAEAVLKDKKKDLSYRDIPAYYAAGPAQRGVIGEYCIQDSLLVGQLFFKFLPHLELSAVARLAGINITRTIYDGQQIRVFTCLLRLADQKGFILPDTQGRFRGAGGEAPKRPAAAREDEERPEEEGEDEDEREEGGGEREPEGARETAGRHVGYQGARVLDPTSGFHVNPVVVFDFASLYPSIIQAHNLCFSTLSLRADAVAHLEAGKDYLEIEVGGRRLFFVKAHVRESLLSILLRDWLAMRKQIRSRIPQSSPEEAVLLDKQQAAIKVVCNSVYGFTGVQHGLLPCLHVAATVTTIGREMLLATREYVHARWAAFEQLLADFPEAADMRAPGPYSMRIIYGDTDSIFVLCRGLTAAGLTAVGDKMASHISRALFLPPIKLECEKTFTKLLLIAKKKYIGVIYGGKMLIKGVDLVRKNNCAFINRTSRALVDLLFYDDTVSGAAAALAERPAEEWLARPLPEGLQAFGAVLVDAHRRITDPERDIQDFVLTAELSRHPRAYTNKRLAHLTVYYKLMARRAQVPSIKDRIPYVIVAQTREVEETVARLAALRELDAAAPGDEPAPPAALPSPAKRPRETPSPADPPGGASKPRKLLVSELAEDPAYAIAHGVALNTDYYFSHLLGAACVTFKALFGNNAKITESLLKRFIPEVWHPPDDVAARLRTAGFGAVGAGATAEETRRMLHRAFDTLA
Entries and their IC50
Give a bare numeral; the unit nM is implied.

# Structure Notation, IC50 (nM)
records = [
    ("Cc1cc(C(=O)NCc2ccc(Cl)cc2)c(=O)n2c1C(=O)N(CC1(CS(C)(=O)=O)CC1)CC2", 283),
    ("NC1(CN2CCn3c(ccc(C(=O)NCc4ccc(Cl)cc4)c3=O)C2=O)CC1", 3600),
    ("CS(=O)(=O)CCCN1CCn2c(c(C3CC3)cc(C(=O)NCc3ccc(Cl)cc3)c2=O)C1=O", 2420),
    ("O=C(NCc1ccc(Cl)cc1)c1ccc2n(c1=O)CCN(CC1(C(=O)N3CCOCC3)CC1)C2=O", 4770),
    ("CS(=O)(=O)CCN1CCn2c(ccc(C(=O)NCc3ccc(Cl)cc3)c2=O)C1=O", 789),
    ("N#CCS(=O)(=O)C1(CN2CCn3c(ccc(C(=O)NCc4ccc(Cl)cc4)c3=O)C2=O)CC1", 116),
]

The reported IC50 of the molecule `CS(=O)(=O)C1(CCN2CCn3c(ccc(C(=O)NCc4ccc(Cl)cc4)c3=O)C2=O)CC1` was 9350

Origin of values: BindingDB's records for patent US12466821
